Test system: Leishmania mexicana
Assay: Antileishmanial activity against axenic amastigote stage of Leishmania mexicana (MNYC/BZ/62/M379) assessed as induction of parasite killing incubated for 24 hrs by alamar blue dye based fluorescence analysis
Assay type: functional
Settings: read-out: ED50 (the source's name)
Assay metric: pEC50
Expect pEC50 as a plain number equal to -log10 of the molar concentration.

Would you please look over these solved cases?
[
  {
    "Molecule": "C[C@H](O)[C@H]1OC(C[C@@H]2OC[C@@]3(C)[C@@H]4CC[C@]5(C)[C@H](CC=C6[C@@H]7CC(C)(C)CC[C@]7(C(=O)O)CC[C@]65C)[C@@]4(C)CC[C@@H]3O2)[C@@H](O)[C@@H]1O (some centres undefined)",
    "Assay metric": "pEC50",
    "Value measured": 4.99
  },
  {
    "Molecule": "COC(=O)[C@]12CCC(C)(C)C[C@H]1C1=CC[C@@H]3[C@@]4(C)CC[C@H](O)[C@@](C)(CO)[C@@H]4CC[C@@]3(C)[C@]1(C)CC2",
    "Assay metric": "pEC50",
    "Value measured": 4.92
  },
  {
    "Molecule": "CC1(C)CC[C@]2(C(=O)O)CC[C@]3(C)C(=CC[C@@H]4[C@@]5(C)CC[C@@H]6O[C@H]([C@H](O)[C@@H](O)[C@H](O)CO)OC[C@@]6(C)[C@@H]5CC[C@]43C)[C@@H]2C1",
    "Assay metric": "pEC50",
    "Value measured": 5.01
  }
]

Query molecule follows.
Give recorded pEC50. C[C@@H]1O[C@@H](C[C@@H]2OC[C@@]3(C)[C@@H]4CC[C@]5(C)[C@H](CC=C6[C@@H]7CC(C)(C)CC[C@]7(C(=O)O)CC[C@]65C)[C@@]4(C)CC[C@@H]3O2)[C@H](O)[C@H](O)[C@H]1O
4.86
